# credit: paper PMC6250127

Item-by-item account of EC50
- assay system: human D3 receptor (Homo sapiens, UniProt P35462)
- Sequence (P35462 whole entry): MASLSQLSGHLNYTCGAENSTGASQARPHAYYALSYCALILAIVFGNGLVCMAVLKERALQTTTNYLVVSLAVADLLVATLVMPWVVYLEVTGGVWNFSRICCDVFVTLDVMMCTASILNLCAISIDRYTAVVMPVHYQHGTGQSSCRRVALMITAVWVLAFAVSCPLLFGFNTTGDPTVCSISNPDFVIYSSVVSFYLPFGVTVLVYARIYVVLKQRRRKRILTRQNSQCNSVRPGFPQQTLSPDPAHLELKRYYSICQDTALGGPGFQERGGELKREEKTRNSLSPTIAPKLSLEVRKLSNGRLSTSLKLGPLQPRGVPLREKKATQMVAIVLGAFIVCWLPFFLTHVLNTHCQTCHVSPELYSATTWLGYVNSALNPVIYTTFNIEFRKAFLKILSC
- assay summary: Stimulation of [35S]GTPγS binding, human D3 receptor in CHO cells
- Format: biochemical
Remember to put the unit after the number in your answer.

C#CCN(CCN1CCN(c2ccc3cc[nH]c3c2Cl)CC1)[C@H]1CCc2nc(N)sc2C1 [(−)-36]
0.84 nM

Consider now this further compound.
[ask] Please look at this compound and report its EC50: C#CCN(CCN1CCN(c2ccc3[nH]ccc3c2Cl)CC1)[C@H]1CCc2nc(N)sc2C1 [(−)-34]
[reply] 10.9 nM

###

- assay system: UniProt:P61169
- Sequence (P61169 whole entry): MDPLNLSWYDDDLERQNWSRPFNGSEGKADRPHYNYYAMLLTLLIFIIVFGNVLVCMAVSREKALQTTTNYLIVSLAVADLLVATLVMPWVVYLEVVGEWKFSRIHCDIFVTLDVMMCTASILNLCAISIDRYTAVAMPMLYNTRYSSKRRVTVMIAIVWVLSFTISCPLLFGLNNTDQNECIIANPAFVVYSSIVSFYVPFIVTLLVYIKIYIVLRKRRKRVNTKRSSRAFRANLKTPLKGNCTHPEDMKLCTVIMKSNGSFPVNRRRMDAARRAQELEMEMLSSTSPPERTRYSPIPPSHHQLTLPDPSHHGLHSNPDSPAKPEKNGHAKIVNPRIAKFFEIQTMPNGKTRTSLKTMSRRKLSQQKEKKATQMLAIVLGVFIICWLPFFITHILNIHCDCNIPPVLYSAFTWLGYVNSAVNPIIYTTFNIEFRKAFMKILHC
- assay summary: [3H]spiroperidol competition binding, rat D2L receptor in HEK-293 cells
Listed here are molecules together with their documented Ki.
Respond with a number, then the unit of measure.

C#CCN(CCN1CCN(c2ccc3cc[nH]c3c2Cl)CC1)[C@H]1CCc2nc(N)sc2C1 [(−)-36]
172 nM

Consider the additional molecule presented here.
[ask] Fill: Ki (UniProt:P61169) for this molecule C#CCN(CCN1CCN(c2ccc3[nH]ccc3c2Cl)CC1)[C@H]1CCc2nc(N)sc2C1 [(−)-34]
[reply] 86.5 nM
